# ASSAY NOTES: folding enthalpy; higher = less favourable; fluorescence melt of hairpins on a sequencing array, two-state fit
# CONDITIONS: sodium 0.088 M
folding enthalpy by entry:

| SEQ TEXT | folding enthalpy [kcal/mol] |
| --- | --- |
| GCAACCGAAAGGTACTGC ((((((....)))..))) | -13.9 |
| GATCTCGGATGAGATC ((((((....)))))) | -33.7 |
| GATCCCAAAAGGGATC ((((((....)))))) | -27.9 |
| GATCTTCTTCAAGATC ((((((....)))))) | -27.7 |
| GATCTGCGGGCAGATC ((((((....)))))) | -42.9 |
| GATCGGCTATCCGATC ((((((....)))))) | -38.4 |
| GGTGTCGAAAGACCTACC ((((((....)))..))) | -16.1 |
| GCATGGCGAAAGCCGGGC ((..(((....)))..)) | -17.7 |
| GATCCGATGACGGATC ((((((....)))))) | -35.4 |
| GCTCCTCGAAAGAGAAGC (((.(((....))).))) | -29.4 |
| GCAGGGAAACCTGC (((((....))))) | -28.1 |
| GACAACGAAAGTTAAGTC ((((((....)))..))) | -14.7 |
| GACGCCGGAAACGACGTC ((((.((....)).)))) | -44.8 |
| GGGATACGAAAGTAACCC (((.(((....))).))) | -31.1 |
| GCGGAGGCGAAAGCCCGC (((..(((....)))))) | -21.7 |
| GCAAGCCGAAAGGCATGC (((.(((....))).))) | -24.9 |
| GTAAAACGAAAGTTATAC (((.(((....))).))) | -14.8 |
| GGGAGCGAAAGCTGCCC ((((((....))).))) | -15.1 |
| GGCTTTGGAAACAAAACC ((.((((....)))).)) | -27.3 |
| GTTCACGAAAGTGGCAAC ((((((....)))..))) | -8.43 |
| GATCCGGAGCCGGATC ((((((....)))))) | -60.6 |
| GGTGGCCGAAAGGCGACC (((.(((....))).))) | -30.2 |
| GTGGCAGGAAACTGTCGC (.(.(((....))).).) | -27.3 |
| GCCTGCGGAAACGCAAGC ((.((((....)))).)) | -18.5 |
| GAGTCCGAAAGGAGGCTC ((((((....)))..))) | -20.7 |
| GCTGTTCGAAAGAATAGC (((.(((....))).))) | -44.9 |
| GTTGTCGAAAGACCCAAC ((((((....)))..))) | -11.1 |
| GATATTGCGAAAGCAATC (((..(((....)))))) | -8.38 |
| GACCTTGGAAACAAGGTC (((((((....))))))) | -40.6 |
| GTTGTTCGAAAGAAGAAC (((.(((....))).))) | -27.6 |
| GGAGGCGGAAACGCTTCC (((.(((....))).))) | -36.9 |
| GAAGGTGGAAACATCTTC ((((.((....)).)))) | -30.8 |
| GGCGTGCCGAAAGGCGCC (((..(((....)))))) | -11.5 |
| GAAGCCGAAAGGCCTTC ((((((....))).))) | -16.2 |
| GGAAAAGCGAAAGCTTCC (((..(((....)))))) | -15.1 |
| GACAATGAAAATTGTC ((((((....)))))) | -31.3 |
| GCTTTGCCGAAAGGCAGC (((..(((....)))))) | -8.46 |
| CGCACGGAAACGTAGGCG ((((((....)))..))) | -30.6 |
| GGCAGCGAAAGCTACGCC ((((((....)))..))) | -20.5 |
| GGAGGCCCGAAAGGGTCC (((..(((....)))))) | -12 |
| GTCCAGACGAAAGTCGAC (((..(((....)))))) | -11.1 |
| GAGAGCGAAAGCTATCTC ((((((....)))..))) | -22.4 |
| CGCGGTCGGAAACGAGCG (((..(((....)))))) | -15.1 |
| GGGTTTCCGAAAGGACCC (((..(((....)))))) | -19.3 |
| GATCAGTTACCTGATC ((((((....)))))) | -37 |
| GGACGACGAAAGTCTCC (((.(((....)))))) | -27.1 |
| GCCCTGCGAAAGCACTGC ((..(((....)))..)) | -6.98 |
| GATCCGTCTACGGATC ((((((....)))))) | -45.5 |
| CGAGGCGGAAACGCATCG (((.(((....))).))) | -37 |
| GGGCAACCGAAAGGTCCC (((..(((....)))))) | -16.3 |
